Experiment: physchem
Conditions: pH 2.5, aqueous with cosolvent or surfactant or cyclodextrin, thermodynamic from solid
RESULT_TYPE: solubility (mg/mL)
Number only, in mg/mL; omit the unit.

Per the records, this molecule ( COc1cccc2c1C(=O)c1c(O)c3c(c(O)c1C2=O)C[C@@](O)(C(=O)CO)C[C@@H]3O[C@H]1C[C@H](N)[C@H](O)[C@H](C)O1 [doxorubicin] ) has solubility equal to 115

---

Experiment: Solubility in Example 7 formulation (hydrogel in 50:50 wt % water/ethanol)
Assay type: physicochemical
Conditions: aqueous with cosolvent or surfactant or cyclodextrin; 50:50 wt % water/ethanol with polyvinylalcohol and butylidene polymer
RESULT_TYPE: solubility (mg/mL)
Provide the reading as a plain figure in mg/mL.

Some entries whose results are on file:
[[record]]
molecule = "Clc1ccc(COC(Cn2ccnc2)c2ccc(Cl)cc2Cl)cc1 (stereo not drawn)"
meas_value = 12.6

[[record]]
molecule = "Clc1ccccc1C(c1ccccc1)(c1ccccc1)n1ccnc1"
meas_value = 11.8


The reported value for Clc1ccc(COC(Cn2ccnc2)c2ccc(Cl)cc2Cl)c(Cl)c1 (stereo not drawn) in terms of solubility is 4.7

---

Measured solubility, listed per entry.
Experiment: Intrinsic solubility of drug
Assay type: physicochemical
Text: J. Pharm 302(2005), 18-28 and S. I. F. Badaway et al, Int. J. Pharmaceut.128(1996), 45-54.
# number only, unit µg/mL dropped from output

[[record]]
compound = "Clc1ccc(COC(Cn2ccnc2)c2ccc(Cl)cc2Cl)cc1 (centres unmarked) [Econazole]"
meas_value = 370


Reported solubility for Clc1ccc(COC(Cn2ccnc2)c2ccc(Cl)cc2Cl)c(Cl)c1 (centres unmarked) [Miconazole] was 90
